Hey, just so you know, these numbers are from the array DNA melting data of Ke et al. (doi:10.1101/2024.01.08.574731).

Test: melting temperature; fluorescence melt of hairpins on a sequencing array, two-state fit, raised by 9.35 °C to match UV melts
Details: sodium 0.088 M
Classify by measured Tm: Fulfilled if it is equal to or exceeds 50 °C, Not fulfilled if it is smaller.

Request: Has GTTTAGGCGAAAGCCAAC (((..(((....)))))) a recorded Tm greater than or equal to 50 °C?
Response: Not fulfilled

Request: Tell me whether Tm is at least 50 °C here: GATATCGAAAGATATC ((((((....))))))
Response: Fulfilled

Request: Is Tm for GCTTTCGAAAGAATGAGC ((((((....)))..))) at or above 50 °C?
Response: Not fulfilled

Request: For this sequence, is measured Tm 50 °C or higher? GGCAGTCGAAAGACCGCC (((.(((....))).)))
Response: Fulfilled

Now examine the next entry.
Request: // inclusive: Tm at least 50 °C? input: GGCCTTACGAAAGTAGCC (((..(((....))))))
Response: Not fulfilled
